# targetEntity: T1, IL-11 (UniProt P20809 22-199, limits assumed)
# T1 construct: also called IL-11 protein; IL-11 antigen
# T1 sequence (looked up): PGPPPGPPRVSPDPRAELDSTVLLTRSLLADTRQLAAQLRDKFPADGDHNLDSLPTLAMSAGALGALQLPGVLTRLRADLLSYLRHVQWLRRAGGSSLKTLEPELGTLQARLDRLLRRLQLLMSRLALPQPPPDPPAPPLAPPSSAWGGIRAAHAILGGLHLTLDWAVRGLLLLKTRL
# assay: BLI (Fortebio), antibody on AHC sensor, IL-11 3.91-125 nM
metric: kon (M⁻¹ s⁻¹)

* VH1+VL3 full-length humanized antibody (antibody, human IgG1, kappa, V domains shown, IgG form, IgG1 Fc; also called VH1+VL3 mAb; CPD-2) VH: QVQLVQSGAEVKKPGASVKVSCKASDYTFTNYWLGWVRQAPGQGLEWMGHIYPGGGYTNYNEKFKGRVTMTRDTSTSTVYMELSSLRSEDTAVYYCARVRSGNDALDFWGQGTLVTVSS VL: EIVLTQSPATLSLSPGERATLSCRASESVDEYGISFMNWFQQKPGQAPRLLIYSASNQGSGIPARFSGSGSGTDFTLTISSLEPEDFAVYFCQQSKEVPWTFGGGTKLEIKR | 214000
